// cross-study collection: IC50 for UniProt:P49841

Check out these entries, answers already filled in.
>>> df
                           molecular_string     measured_on  readout_type  recorded_measurement
0  NC(=O)c1ccc(-c2ccnc(NCCCOc3ccccc3)n2)cc1  UniProt:P49841          IC50            ≤ 10000 nM
1  CN(C)CCCNC(=O)c1ccc(/C=N/Nc2ncnc3c2cnn3-c2cccc3[nH]cnc23)cc1  UniProt:P49841          IC50              < 100 nM
2  Cc1cccc(CNc2ccnc(NCCNc3ccc([N+](=O)[O-])cn3)n2)c1  UniProt:P49841          IC50            ≤ 10000 nM
3  O=[N+]([O-])c1cccc(Nc2nccc(-c3cccc(Cl)c3)n2)c1  UniProt:P49841          IC50                160 nM

Okay, next one:
Query string: Entry N#Cc1ccc(-c2nc(NCCNc3ccc([N+](=O)[O-])cn3)nc(-c3ccc(C#N)cc3)c2C(=O)O)cc1 : reported IC50 = ?
Result string: ≤ 1000 nM
